Listed compounds paired with reported MIC
tested on: S. epidermidis ATCC 35984; test: MIC, twofold serial microdilution; assay type: cell-based; conditions: Staphylococcus epidermidis, ATCC35984; standard strain, 18 h, 35 °C
Please reply with the bare figure in µg/mL and do not write the unit itself.

Consider the following illustrative entries.
compound: O=[N+]([O-])c1cc(NC(=S)NC2CC3CCC2C3)ccc1Cl (stereo not drawn)
quantity kind: MIC
test value: 16

compound: O=[N+]([O-])c1cc(NC(=S)NCc2ccco2)ccc1Cl
quantity kind: MIC
test value: 32

compound: O=C(O)c1cn(C2CC2)c2cc(N3CCNCC3)c(F)cc2c1=O [Ciprofloxacin, reference compound]
quantity kind: MIC
test value: 0.25

Retrieve MIC measured for C=CCNC(=S)Nc1ccc(Cl)c([N+](=O)[O-])c1 and print it.
32

// Input: C=C(C)CNC(=S)Nc1ccc(Cl)c([N+](=O)[O-])c1 . Output its MIC only.
16

Quick one: give measured MIC for O=[N+]([O-])c1cc(NC(=S)Nc2ccccc2)ccc1Cl
16
